Biological target: protein-protein interaction between Kras and SOS1 (biotin-tagged human Kras loaded with GDP, His-tagged human SOS1) (Homo sapiens (Human), UniProt P01116, G12D)
Assay: Protein-protein interaction inhibition between Kras and SOS1 (KrasG12D-SOS PPI) using AlphaScreen
Format: biochemical
Conditions: AlphaScreen; biotin-tagged human Kras loaded with GDP, His-tagged human SOS1; read-out: KRAS G12D-SOS PPI IC50
Bridge positions count the residues as written; N and C are the ends. Square brackets hold non-standard residues; d marks the D form. Peptide text beside a SMILES is read from it. * marks the point of attachment. hPhe(3-Cl-4-CF3) = N[C@@H](CCc1ccc(C(F)(F)F)c(Cl)c1)C(=O)O; NMePhe(4-Me) = CN[C@@H](Cc1ccc(C)cc1)C(=O)O; NMeGly(cPent) = CN[C@H](C(=O)O)C1CCCC1; NMeCha = CN[C@@H](CC1CCCCC1)C(=O)O; NMeD = CN[C@@H](CC(=O)O)C(=O)O; NMeL = CN[C@@H](CC(C)C)C(=O)O; NMeV = CN[C@H](C(=O)O)C(C)C; d(β3hA) = C[C@@H](N)CC(=O)O; NMeA = CN[C@@H](C)C(=O)O; Piperidide = C1CCN(*)CC1; Ac5c = NC1(C(=O)O)CCCC1; Aze = O=C(O)[C@@H]1CCN1; Sar = CNCC(=O)O
attribute_measured: IC50 (nM)
// note: answer is a bare numeric in nM

| compound | IC50 (nM) |
| --- | --- |
| CC[C@H](C)[C@@H]1NC(=O)[C@H](CC(C)C)N(C)C(=O)C[C@@H](C(=O)N2CCCCC2)N(C)C(=O)[C@H](C(C)C)N(C)C(=O)C2(CCCC2)NC(=O)[C@@H]2CCCN2C(=O)[C@H](CCc2ccc(C(F)(F)F)c(Cl)c2)NC(=O)CN(C)C(=O)[C@H](CC2CCCCC2)N(C)C(=O)[C@@H]2CCN2C(=O)[C@H](CC2CCCCC2)N(C)C1=O [Compound 1574] ([NMeL]I[NMeCha][Aze][NMeCha][Sar][hPhe(3-Cl-4-CF3)]P[Ac5c][NMeV][NMeD]-Piperidide; lactam N-11) | 35 |

Continue with the next compound.
Challenge: Tell me the measured IC50 of CC[C@H](C)[C@@H]1NC(=O)[C@H](CC(C)C)N(C)C(=O)C[C@@H](C)NC(=O)[C@H](C2CCCC2)N(C)C(=O)[C@@H](C)NC(=O)[C@@H]2CCCN2C(=O)[C@H](CCc2ccc(C(F)(F)F)c(Cl)c2)NC(=O)CN(C)C(=O)[C@H](Cc2ccc(C)cc2)N(C)C(=O)[C@@H]2CCN2C(=O)[C@H](C)N(C)C1=O [Compound 1222] (cyclo([Aze][NMePhe(4-Me)][Sar][hPhe(3-Cl-4-CF3)]P[dA][NMeGly(cPent)][d(β3hA)][NMeL]I[NMeA])) , please.
Response given: 25

###

Molecular target: protein-protein interaction between Kras and SOS1 (biotin-tagged human Kras loaded with GDP, His-tagged human SOS1) (Homo sapiens (Human), UniProt P01116, G12D)
Test: Protein-protein interaction inhibition between Kras and SOS1 (KrasG12D-SOS PPI) using AlphaScreen
Format: biochemical
Details: AlphaScreen; biotin-tagged human Kras loaded with GDP, His-tagged human SOS1; read-out: KRAS G12D-SOS PPI IC50
Bridge positions count the residues as written; N and C are the ends. Square brackets hold non-standard residues; d marks the D form. Peptide text beside a SMILES is read from it. * marks the point of attachment. hPhe(3-Cl-4-CF3) = N[C@@H](CCc1ccc(C(F)(F)F)c(Cl)c1)C(=O)O; hPhe(3-F,4-CF3) = N[C@@H](CCc1ccc(C(F)(F)F)c(F)c1)C(=O)O; NMePhe(4-Me) = CN[C@@H](Cc1ccc(C)cc1)C(=O)O; NMeGly(cPent) = CN[C@H](C(=O)O)C1CCCC1; NMeCha = CN[C@@H](CC1CCCCC1)C(=O)O; NMeI = CC[C@H](C)[C@H](NC)C(=O)O; Gly(cPr) = N[C@H](C(=O)O)C1CC1; NMeD = CN[C@@H](CC(=O)O)C(=O)O; AllylGly = C=CC[C@H](N)C(=O)O; NMeL = CN[C@@H](CC(C)C)C(=O)O; NMeV = CN[C@H](C(=O)O)C(C)C; NMeS = CN[C@@H](CO)C(=O)O; NMeA = CN[C@@H](C)C(=O)O; Piperidide = C1CCN(*)CC1; Pyrrolidide = C1CCN(*)C1; Ac5c = NC1(C(=O)O)CCCC1; Aze = O=C(O)[C@@H]1CCN1; Sar = CNCC(=O)O; Propyl = CCC*
attribute_measured: IC50

Solved cases below.
| compound | IC50 |
| --- | --- |
| CC(C)C[C@H]1C(=O)N[C@@H](C2CC2)C(=O)N(C)[C@@H](C)C(=O)N2CC[C@H]2C(=O)N(C)[C@@H](CC2CCCCC2)C(=O)N(C)CC(=O)N[C@@H](CCc2ccc(C(F)(F)F)c(Cl)c2)C(=O)N2CCC[C@H]2C(=O)NC2(CCCC2)C(=O)N(C)[C@@H](C(C)C)C(=O)N(C)[C@H](C(=O)N2CCCCC2)CC(=O)N1C [Compound 280] ([NMeL][Gly(cPr)][NMeA][Aze][NMeCha][Sar][hPhe(3-Cl-4-CF3)]P[Ac5c][NMeV][NMeD]-Piperidide; lactam N-11) | 24 nM |
| CC[C@H](C)[C@@H]1NC(=O)[C@H](CC(C)C)N(C)C(=O)C[C@@H](C(=O)N2CCCC2)NC(=O)[C@H](C2CCCC2)N(C)C(=O)C2(CCCC2)NC(=O)[C@@H]2CCCN2C(=O)[C@H](CCc2ccc(C(F)(F)F)c(Cl)c2)NC(=O)CN(C)C(=O)[C@H](CC2CCCCC2)N(C)C(=O)[C@@H]2CCN2C(=O)[C@H](C)N(C)C1=O [Compound 700] ([NMeL]I[NMeA][Aze][NMeCha][Sar][hPhe(3-Cl-4-CF3)]P[Ac5c][NMeGly(cPent)]D-Pyrrolidide; lactam N-11) | 5 nM |
| CCCOC[C@H]1C(=O)N(C)CC(=O)N[C@@H](CCc2ccc(C(F)(F)F)c(F)c2)C(=O)N2CCC[C@H]2C(=O)NC2(CCCC2)C(=O)N(C)[C@@H](C2CCCC2)C(=O)N(C)[C@H](C(=O)N2CCCCC2)CC(=O)N(C)[C@@H](CC(C)C)C(=O)N[C@@H]([C@@H](C)CC)C(=O)N(C)[C@@H](C)C(=O)N2CC[C@H]2C(=O)N1C [Compound 1029] ([NMeL]I[NMeA][Aze][NMeS](Propyl)[Sar][hPhe(3-F,4-CF3)]P[Ac5c][NMeGly(cPent)][NMeD]-Piperidide; lactam N-11) | 1.4 nM |
| CC[C@H](C)[C@@H]1NC(=O)[C@H](CC(C)C)N(C)C(=O)C[C@@H](C(=O)N(C)C)N(C)C(=O)[C@H]([C@@H](C)CC)N(C)C(=O)C2(CCCC2)NC(=O)[C@@H]2CCCN2C(=O)[C@H](CCc2ccc(C(F)(F)F)c(Cl)c2)NC(=O)CN(C)C(=O)[C@H](Cc2ccc(C)cc2)N(C)C(=O)[C@@H]2CCN2C(=O)[C@H](C)NC1=O [Compound 840] ([NMeL]IA[Aze][NMePhe(4-Me)][Sar][hPhe(3-Cl-4-CF3)]P[Ac5c][NMeI][NMeD]-NMe2; lactam N-11) | 1.2 nM |

Continue with the next compound.
Challenge: Tell me the measured IC50 of C=CC[C@@H]1NC(=O)[C@H](CC(C)C)N(C)C(=O)C[C@@H](C(=O)N2CCCCC2)N(C)C(=O)[C@H](C(C)C)N(C)C(=O)C2(CCCC2)NC(=O)[C@@H]2CCCN2C(=O)[C@H](CCc2ccc(C(F)(F)F)c(Cl)c2)NC(=O)CN(C)C(=O)[C@H](CC2CCCCC2)N(C)C(=O)[C@@H]2CCN2C(=O)[C@H](C)N(C)C1=O [Compound 745] ([NMeL][AllylGly][NMeA][Aze][NMeCha][Sar][hPhe(3-Cl-4-CF3)]P[Ac5c][NMeV][NMeD]-Piperidide; lactam N-11) , please.
Response given: 29 nM

###

Target: protein-protein interaction between Kras and SOS1 (biotin-tagged human Kras loaded with GDP, His-tagged human SOS1) (Homo sapiens (Human), UniProt P01116, G12D)
Test: Protein-protein interaction inhibition between Kras and SOS1 (KrasG12D-SOS PPI) using AlphaScreen;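 also: kras produced in E. coli, Ni-coupled donor beads and streptavidin acceptor beads, excitation 680 nm with emission detected at 520–620 nm via singlet oxygen transfer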
Format: biochemical
Conditions: AlphaScreen; biotin-tagged human Kras loaded with GDP, His-tagged human SOS1; read-out: KRAS G12D-SOS PPI IC50
Numbered stars: 1 amine (or outer) side, 2 acyl side, 3 side chain; on linkers, the order of the positions; unused ones are H or OH. Bridge positions count the residues as written; N and C are the ends. Square brackets hold non-standard residues; d marks the D form. Peptide text beside a SMILES is read from it. * marks the point of attachment. hPhe(3-Cl-4-CF3) = N[C@@H](CCc1ccc(C(F)(F)F)c(Cl)c1)C(=O)O; X7 = O=C([C@@H]1C[C@H](N2CCC(F)(F)CC2)CN1[*:1])[*:2]; NMeGly(cPent) = CN[C@H](C(=O)O)C1CCCC1; NMeCha = CN[C@@H](CC1CCCCC1)C(=O)O; NMeE = CN[C@@H](CCC(=O)O)C(=O)O; NMeD = CN[C@@H](CC(=O)O)C(=O)O; NMeL = CN[C@@H](CC(C)C)C(=O)O; NMeV = CN[C@H](C(=O)O)C(C)C; Morpholide = C1CN(*)CCO1; NMeA = CN[C@@H](C)C(=O)O; Piperidide = C1CCN(*)CC1; Pyrrolidide = C1CCN(*)C1; Ac5c = NC1(C(=O)O)CCCC1; Aze = O=C(O)[C@@H]1CCN1; Sar = CNCC(=O)O
// IC50 lookup, one value per entry
// note: answer is a bare numeric in nM

| compound | IC50 [nM] |
| --- | --- |
| CC[C@H](C)[C@@H]1NC(=O)[C@H](C)N(C)C(=O)C[C@@H](C(=O)N2CCCCC2)N(C)C(=O)[C@H](C(C)C)N(C)C(=O)C2(CCCC2)NC(=O)[C@@H]2C[C@H](N3CCC(F)(F)CC3)CN2C(=O)[C@H](CCc2ccc(C(F)(F)F)c(Cl)c2)NC(=O)CN(C)C(=O)[C@H](CC2CCCCC2)N(C)C(=O)CN(C)C(=O)CN(C)C1=O [Compound 460] ([NMeA]I[Sar][Sar][NMeCha][Sar][hPhe(3-Cl-4-CF3)][X7][Ac5c][NMeV][NMeD]-Piperidide; lactam N-11) | 1 |

Challenge: Tell me the measured IC50 of CC[C@H](C)[C@@H]1NC(=O)[C@H](CC(C)C)N(C)C(=O)C[C@@H](C(=O)N2CCOCC2)N(C)C(=O)[C@H](C2CCCC2)N(C)C(=O)C2(CCCC2)NC(=O)[C@H](CCC(=O)N2CCCC2)N(C)C(=O)[C@H](CCc2ccc(C(F)(F)F)c(Cl)c2)NC(=O)CN(C)C(=O)[C@H](CC2CCCCC2)N(C)C(=O)[C@@H]2CCN2C(=O)[C@H](C)N(C)C1=O [Compound 2104] ([NMeL]I[NMeA][Aze][NMeCha][Sar][hPhe(3-Cl-4-CF3)][NMeE](Pyrrolidide)[Ac5c][NMeGly(cPent)][NMeD]-Morpholide; lactam N-11) , please.
Response given: 10

Values were extracted from patent US20240148821A1.
